Target: Tsu-ACR-16-like receptor (O-AChR) (Trichuris suis, UniProt A0A890W0I7)
Construct: full-length Tsu-ACR-16-like (GenBank MT386096), homomeric channel co-expressed with Asu-RIC-3 in Xenopus laevis oocytes
Sequence (A0A890W0I7 entry or part of it): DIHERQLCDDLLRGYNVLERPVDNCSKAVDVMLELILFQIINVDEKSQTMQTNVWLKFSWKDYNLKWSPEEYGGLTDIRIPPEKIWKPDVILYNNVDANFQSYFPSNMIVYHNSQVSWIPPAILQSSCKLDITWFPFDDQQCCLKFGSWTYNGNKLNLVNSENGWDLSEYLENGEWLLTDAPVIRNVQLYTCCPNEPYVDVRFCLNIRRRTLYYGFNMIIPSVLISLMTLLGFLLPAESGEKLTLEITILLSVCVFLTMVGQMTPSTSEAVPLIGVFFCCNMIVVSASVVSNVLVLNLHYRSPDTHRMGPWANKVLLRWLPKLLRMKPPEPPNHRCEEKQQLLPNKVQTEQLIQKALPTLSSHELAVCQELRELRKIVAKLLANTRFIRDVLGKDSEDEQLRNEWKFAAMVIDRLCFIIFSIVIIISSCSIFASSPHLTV
Assay: two-electrode voltage clamp in Xenopus oocytes, agonist dose-response
Type: cell-based
Below, each of the compounds is paired with its reported EC50 value.
Expressed in µM, but write only the number.

Returns the measured EC50 for the input compound. Input: CN1CCCN=C1/C=C/c1cccc(O)c1 9.49

Returns the measured EC50 for the input compound. Input: CC(=O)OCC[N+](C)(C)C 14.5
